System: OVCAR-4
Assay: NCI tumour cell line growth inhibition, 48 h
Calls of active or inactive are those of the source. Rule as the data show it: active = GI50 up to about 1.1 µM and inactive = higher.
endpoint-label: GI50

Entry under review: CC(/C(=N\Nc1ccccc1)c1ccc(O)cc1)C1C(=O)Oc2ccccc21 (stereo not given) . Reported GI50?
> 100 µM (inactive)

Entry under review: O=C(O)C(CS)NCc1c2ccccc2nc2ccccc12 (stereo not given) . Reported GI50?
12.9 µM (inactive)

Further cases:
Entry under review: C[N+](C)(C)c1ccc(C(N)C(=O)O)cc1 (stereo not given) . Reported GI50?
> 100 µM (inactive)

Entry under review: CN(C)C[C@H]1CC[C@@H](CN(C)C)C1=O . Reported GI50?
9.23 µM (inactive)

Entry under review: Cc1cccc(C)c1NC(=O)CCC(=O)NNc1nnc(C)n1N . Reported GI50?
> 100 µM (inactive)

Entry under review: Cc1ccc(NC(=O)CC2SC(=N)NC2=O)cc1C (stereo not given) . Reported GI50?
> 100 µM (inactive)

====

System: OVCAR-4
Assay: NCI tumour cell line growth inhibition, 48 h
The source made the active and inactive calls. Rule as the data show it: active = GI50 up to about 1.1 µM and inactive = higher.
endpoint-label: GI50

Entry under review: COc1ccc2[nH]c3c(c2c1)[C@H](c1ccccc1)C[C@@H]1C(=O)N(c2ccccc2)C(=O)[C@H]31 . Reported GI50?
16.7 µM (inactive)

Could you now look at the following compound, please?
Entry under review: COc1cccc(/C=C\c2ccnc3ccccc23)c1 . Reported GI50?
> 10 µM (inactive)

====

Tested on: SR
Experiment: NCI tumour cell line growth inhibition, 48 h
Active and inactive are the calls of the source. No stated cut-off is given here; in the data, active = GI50 up to about 1.1 µM and inactive = higher.
Allowed answers: 1 for active, 0 for inactive

What classification did CN(C)CCCSc1nc2c(c(=N)n1-c1ccccc1)c(=S)n(-c1ccccc1)c(=S)n2-c1ccccc1 end up with in this test?
1

What classification did COc1cc2c3c(c1OC)C1(C=CC(=O)C=C1)CC3N(C(=O)OC(C)(C)C(Cl)(Cl)Cl)CC2 (stereo not drawn) end up with in this test?
0

What classification did [N-]=[N+]=Nc1c(Br)c(=O)[nH]c(=O)n1COCCO end up with in this test?
0

What classification did COc1ccc2[nH]c3c(c2c1)[C@H](c1ccccc1)C[C@@H]1C(=O)N(c2ccccc2)C(=O)[C@H]31 end up with in this test?
0

What classification did COc1ccc(-c2nc3ccc(C)cc3o2)c(OC)c1 end up with in this test?
0

What classification did CN1C(=O)CNS1(=O)=O end up with in this test?
0

Further cases:
What classification did COC(=O)C(C(=O)C(N)=O)c1csc(-n2nc(-c3ccccc3)cc2-c2ccccc2)n1 (stereo not drawn) end up with in this test?
0

What classification did C=CCc1c(O)c2ccccc2[nH]c1=O end up with in this test?
0

What classification did N#Cc1nc(C(F)(F)F)oc1N end up with in this test?
0

What classification did O=C(NC1CCN(Cc2ccccc2)CC1)c1ccccc1I end up with in this test?
0

What classification did CCOC(=O)c1[nH]cc(C)c1-c1ccn(-c2ccccc2)c1 end up with in this test?
0

====

System: SK-MEL-28
Experiment: NCI tumour cell line growth inhibition, 48 h
Active and inactive are the calls of the source. Cut-off read from the data, not from the text of the source: active = GI50 up to about 1.1 µM and inactive = higher.
endpoint-label: GI50

Example compounds with recorded GI50:
Could you share what GI50 was measured for O=C(NC1CCN(Cc2ccccc2)CC1)c1ccccc1I , tested on SK-MEL-28?
17.8 µM (inactive)

Could you share what GI50 was measured for C/C=C\C(CC(=O)OC)CC(=O)N(CCC1CN(S(=O)(=O)C(F)(F)F)c2ccccc21)Cc1ccc(OC)cc1OC (stereo not drawn) , tested on SK-MEL-28?
> 100 µM (inactive)

Could you now look at the following compound, please?
Could you share what GI50 was measured for CN1CC[C@]2(c3cccc(O)c3)CC(=O)/C(=C/c3ccccc3)[C@@H]1C2.[O-][Cl+3]([O-])([O-])O , tested on SK-MEL-28?
3.06 µM (inactive)
